# Test system: OVCAR-8
# Test protocol: NCI tumour cell line growth inhibition, 48 h
Calls of active or inactive are those of the source. No stated cut-off is given here; in the data, active = GI50 up to about 1.1 µM and inactive = higher.
Labels: Y for active, N for inactive

Compound	Label class
CC1=C(c2cc(C(=O)Nc3nccs3)nc(NC#N)n2)Sc2ccccc2N1	N
COc1ccc(C(=O)/C=C/c2cc(O)c(O)cc2F)c(OC)c1	N
O=C1/C(=N\NC(=S)Nc2ccc(Cl)cc2)c2cc([N+](=O)[O-])ccc2N1CN1CCOCC1	N
CN(C)CCNC(=O)c1cccc2[nH]c(-c3ccccc3)nc12	N
c1ccc2c(c1)SCCCSCCSCCCS2	N
O=C1CC(=O)c2c(O)cc(O)c(c2O)-c2c(ccc(O)c2O)C2=CC(=O)c3c(O)cc(O)c(c3O2)-c2c1ccc(O)c2O.O=C1CC2(O)Oc3c1c(O)cc(O)c3-c1c(ccc(O)c1O)-c1cc(=O)c3c(O)cc(O)c(c3o1)-c1c2ccc(O)c1O	N
CN(C)c1ccc(/C=C2\C[C@H]3[C@@H]4CC=C5C[C@@H](N6CCCC6)CC[C@]5(C)[C@H]4CC[C@]3(C)[C@H]2O)cc1	Y
N#Cc1cccc(N2C(=O)c3ccc(C(=O)c4ccc5c(c4)C(=O)N(c4cccc(C#N)c4)C5=O)cc3C2=O)c1	N
C1=N\CCNCC/N=C\c2ccc(cc2)OCc2cccc(n2)COc2ccc/1cc2	N
CC(C)(C)N1NC1C1NN1C(C)(C)C (stereo not given)	N
CCCN/C(N)=N/C#N	N
O=[N+]([O-])c1cccc2nc3ccccc3c(NCCNCCO)c12	Y
COC(=O)N/N=C(/CC1(O)C(=O)Nc2ccc([N+](=O)[O-])cc21)c1ccccc1 (stereo not given)	N
O=C1C(=C2SC(c3ccccc3)(c3ccccc3)c3ccccc32)C(=O)c2ccccc21	N
CC(C)(C)OC(=O)NC12C3C4C1C1C2C3C41NC(=O)OC(C)(C)C (stereo not given)	N
c1ccc(-c2nnn(CCN3CCCCC3)n2)cc1	N
COc1ccc([C@H]2C=C(c3cc(F)c(Cl)cc3Cl)NC(=S)N2)cc1	N
COC1C(CN[N+](=O)CC2OC3OC(C)(C)OC3C2OC)OC2OC(C)(C)OC21 (stereo not given)	N
O=C1CCCC(=O)N1CCc1c[nH]c2ccccc12	N
O=c1cc(-c2ccccc2)oc2ccc(Oc3nnnn3-c3ccccc3)cc12	N

###

# Tested on: UACC-62
# Test protocol: NCI tumour cell line growth inhibition, 48 h
The source made the active and inactive calls. Cut-off read from the data, not from the text of the source: active = GI50 up to about 1.1 µM and inactive = higher.
# Lookup of reported GI50 keyed by entry
Quantity name: GI50

In [3]: df
Out[3]:
                                   compound  quantity_name      observed_result
0           Sc1nnc(SCc2ccccc2Cl)c2nc[nH]c12           GI50  > 100 µM (inactive)
1  COc1cc(C2C(C(=O)O)=C(COC(C)=O)Oc3cc4c(cc32)OCO4)cc(OC)c1OC (stereo unspecified)           GI50  > 100 µM (inactive)
2  COc1cc2c(c(OC)c1)C(C)=NC(C)C2 (stereo unspecified)           GI50  > 100 µM (inactive)
3  CC(C)N(C(=O)C12C3C4C1C1C2C3C41C(O)C(C)(C)C)C(C)C (stereo unspecified)           GI50   > 50 µM (inactive)
4  COC(=O)NN1C(C)=C(C(=O)OC)C2(CCOC2=O)C1(C)O (stereo unspecified)           GI50  > 100 µM (inactive)
5          COc1cccc(C=O)c1C(=O)c1cc(O)ccc1O           GI50   54.8 µM (inactive)
